Test system: B6C3F1 mice, colon carcinoma 38 s.c., T/C
Assay: NCI In Vivo Anticancer Drug Screen. Data for tumor model Colon Carcinoma 38 (subcutaneous) in B6C3F1 mice
Details: endpoint: median tumor weight (est.); dose: 100.0 mg/kg/injection; schedule: Q07DX002 (ip); vehicle: saline with Tween-80; higher = larger tumour
Records with an inconclusive call do not appear.
Provide the recorded T/C for the entries that follow.

Answered examples (8):
> print(dat)
                                   compound            result
1  CCCCCC1c2cc(O)ccc2OC1N1CCOCC1 (configuration not stated)   92 % of control
2  CCN(CC)c1ccc2[nH]c3c(C(N)=O)cc(=O)c(=O)c=3oc2c1   93 % of control
3  O=C(CCCN1CCC(C(O)c2ccc(F)cc2)CC1)c1ccc(F)cc1 (configuration not stated)   67 % of control
4     Nc1nc(N)c2cc(S(=O)(=O)c3ccccc3)ccc2n1   45 % of control
5  O=C(C/C(=N\C(=S)Nc1cc(C(F)(F)F)ccc1Cl)NO)N1CCCC1   57 % of control
6  CCCCCCCCCCCCCCCCCCCCCC(=O)Nc1ccn(C2OC(CO)C(O)C2O)c(=O)n1 (configuration not stated)   83 % of control
7  CCCCCCCCCCCCCCCCCC(=O)Nc1ccn(C2OC(CO)C(O)C2O)c(=O)n1 (configuration not stated)   23 % of control
8             O=C1SC(c2ccccc2)=S=C1c1ccccc1  114 % of control

Report T/C for every entry below.
1. CC(=O)N(C)O
2. COc1ccc2c(ccc3oc([N+](=O)[O-])cc32)c1
3. COc1ccc(S(=O)(=O)N=N/C=C2\C=CC=CN2O)cc1OC
4. N=c1c(C(=O)OCc2ccccc2)ncc(CCl)n1O

1. 124 % of control
2. 116 % of control
3. 91 % of control
4. 107 % of control
